Biological target: recombinant human LTA4 hydrolase (rhLTA4H) (Homo sapiens, UniProt P09960)
Construct: made in house; host or cells: Spodoptera frugiperda (Sf-9) cells, baculovirus (pFastBac1)
Sequence (P09960 whole entry): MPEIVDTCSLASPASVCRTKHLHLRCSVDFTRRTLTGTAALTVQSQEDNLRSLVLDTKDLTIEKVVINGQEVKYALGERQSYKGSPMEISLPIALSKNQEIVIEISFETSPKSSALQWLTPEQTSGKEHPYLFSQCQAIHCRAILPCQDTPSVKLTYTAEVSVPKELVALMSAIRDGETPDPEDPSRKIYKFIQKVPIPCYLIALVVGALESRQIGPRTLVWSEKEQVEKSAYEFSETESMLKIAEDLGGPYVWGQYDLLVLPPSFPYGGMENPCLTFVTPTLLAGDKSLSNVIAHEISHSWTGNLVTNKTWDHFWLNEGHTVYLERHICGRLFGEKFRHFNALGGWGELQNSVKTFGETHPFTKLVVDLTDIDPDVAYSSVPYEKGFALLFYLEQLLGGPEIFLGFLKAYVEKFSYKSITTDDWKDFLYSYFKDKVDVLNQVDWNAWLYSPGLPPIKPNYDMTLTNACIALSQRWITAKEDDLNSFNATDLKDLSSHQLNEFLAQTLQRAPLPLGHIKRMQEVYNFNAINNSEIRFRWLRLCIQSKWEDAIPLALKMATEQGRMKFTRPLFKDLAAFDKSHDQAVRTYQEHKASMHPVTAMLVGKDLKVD
Experiment: Recombinant human LTA4 hydrolase assay for LTA4 hydrolase inhibitor activity
Type: biochemical
Details: rhLTA4H, LTB4 by immunoassay; single determination or average of two or more; mark after value = form tested: ′ free base, ″ hydrochloride, ^ formate; read-out: IC50
Counter-ions that a name gives are not always drawn.
readout: pIC50
Schema: pIC50 number; meaning minus log10 of the concentration expressed in molar units.

Input line: Write down pIC50 measured for item c1cnc2nc(Oc3ccc4oc(CN5CCOCC5)cc4c3)sc2c1
Output line: 6.71

Input line: Write down pIC50 measured for item CC(=O)N1C[C@H]2CC[C@@H](C1)N2Cc1cc2ccc(Oc3nc4ncccc4s3)cc2o1
Output line: 7.44

Input line: Write down pIC50 measured for item c1cnc2nc(Oc3ccc4c(CN5CCOCC5)c[nH]c4c3)sc2c1
Output line: 8.70

Input line: Write down pIC50 measured for item COC[C@@H]1CCCN1Cc1coc2cc(Oc3nc4ncccc4s3)ccc12
Output line: 9.00

Input line: Write down pIC50 measured for item CC(=O)N[C@@H]1C[C@H]2CC[C@@H](C1)N2Cc1cc2ncc(Oc3nc4ncccc4s3)cc2o1
Output line: 6.96

Input line: Write down pIC50 measured for item NC(=O)N1C[C@@H]2C[C@H]1CN2C(=O)c1coc2cc(Oc3nc4ncccc4s3)ccc12
Output line: 7.39

Input line: Write down pIC50 measured for item NC(=O)N1CC2CN(Cc3cc4ccc(Oc5nc6ncccc6s5)cc4o3)CC2C1 (centres unmarked)
Output line: 7.41

Input line: Write down pIC50 measured for item c1cnc2nc(Oc3ccc4c(CN5CCN(c6ccncc6)CC5)coc4c3)sc2c1 [Example 289, formate]
Output line: 8.40

###

Target: recombinant human LTA4 hydrolase (rhLTA4H) (Homo sapiens, UniProt P09960)
Construct: made in house; host or cells: Spodoptera frugiperda (Sf-9) cells, baculovirus (pFastBac1)
Assay: Recombinant human LTA4 hydrolase assay for LTA4 hydrolase inhibitor activity
Format: biochemical
Conditions: rhLTA4H, LTB4 by immunoassay; single determination or average of two or more; mark after value = form tested: ′ free base, ″ hydrochloride, ^ formate; read-out: IC50
Structures can show the parent of a compound that is named as a salt.
readout: pIC50
Schema: pIC50 number; meaning minus log10 of the concentration expressed in molar units.

Input line: Write down pIC50 measured for item OC1CN(Cc2coc3cc(Oc4nc5ncccc5s4)ccc23)C1
Output line: 8.00

Input line: Write down pIC50 measured for item c1cnc2nc(Oc3ccc4c(CCN5CCOCC5)coc4c3)sc2c1
Output line: 7.21

Input line: Write down pIC50 measured for item CC(=O)N1CCCN(Cc2coc3cc(Oc4nc5ncccc5s4)ccc23)CC1
Output line: 8.05

Input line: Write down pIC50 measured for item Clc1ccc2sc3c(c2c1)CN(Cc1c[nH]c2cc(Oc4nc5ncccc5s4)ccc12)CC3 [Example 36, formate]
Output line: 7.11

Input line: Write down pIC50 measured for item CCn1c(CN2CCOCC2)cc2cc(Oc3nc4ccccc4s3)ccc21
Output line: 5.79

Input line: Write down pIC50 measured for item O=C(c1ccoc1)N1CC2CN(Cc3coc4cc(Oc5nc6ncccc6s5)ccc34)CC2C1 (centres unmarked)
Output line: 8.10

Input line: Write down pIC50 measured for item CC(=O)N[C@H]1C[C@H]2CC[C@@H](C1)N2Cc1cc2ncc(Oc3nc4ncccc4s3)cc2o1
Output line: 6.07

Input line: Write down pIC50 measured for item CC(=O)N[C@H]1C[C@H]2CC[C@@H](C1)N2Cc1cc2ccc(Oc3nc4ncccc4s3)cc2[nH]1
Output line: 7.57
